molecular target: SARS-CoV-2 Spike (S) protein, wild type (SARS-CoV-2, UniProt P0DTC2 14-1208); assay: HT-SPR Carterra LSA; mAb coupled to chip, Spike in solution; 1:1 Langmuir fit
value type: koff

| binder | meas value |
| --- | --- |
| anti-SARS-CoV-2 antibody 1037 (antibody, V domains shown) VH: QITLKESGPTLVKPTQTLTLTCTFSGFSLSTSGVGVGWIRQPPGKALEWLALIYWDDDKRYSPSLKSRLTITKDTSKNQVVLTMTNMDPVDTATYYCAHHTITRINDYWGQGTLVTVSS VL: QSALTQPASVSGSPGQSITISCTATSSDVGAYNYVSWYQQHPGKAPKLMIYDVSKRPSGVSNRFSGSKSGNTASLTISGLQAEDEADYYCSSYTSSSTVFGGGTKLTVLG | 1.36e-05 s⁻¹ |
| anti-SARS-CoV-2 antibody 851 (antibody, V domains shown) VH: QITLKESGPTLVKPTQTLTLTCTFSGFSLSTNGVGMGWIRQPPGKALEWLALIYWDDDQFYSPSLKSRLTITRDTSKNQVVLTMTNMDPVDTATYYCAQAFYESFGFYSWGQGTLVTVSS VL: NFMLTQPHSVSESPGKTVIISCTRSIGSIASNYVQWYQQRPGSAPTIVVFEDNERPSGVPDRFSGSIDRSSNSASLTISGLKTEDEADYYCQSYDGSSELVFGGGTKLTVLG | ≤ 1e-05 s⁻¹ |
| anti-SARS-CoV-2 antibody 923 (antibody, V domains shown) VH: EVQLVESGGGVVRPGGSLRLSCAASGFIFDDYDMTWVRQAPGKGLEWVSGISWNGGNTGYADSVKGRFTISRDNAKNSLYLQMNSLRAEDTALYHCAVIMSPIPRYSGYDWAGGAFDIWGQGTMVTVSS VL: SSELTQDPAVSVALGQTVRITCQGDSLRSYYASWYQQKPGQVPILVIYDKNNRPSGIPDRFSGSSSGNTASLTITGAQAEDEADYYCNSRDSSGNAVVFGGGTKLTVLG | ≤ 1e-05 s⁻¹ |

// provenance: patent US20220356229A1
